// provenance: ChEMBL document CHEMBL3988442

biological target: Proteasome subunit beta (Trypanosoma cruzi) (UniProt O96673); assay: Trypanosoma cruzi proteasome chymotrypsin-like activity (TcProtChymo) assay.; assay type: functional; design: scale not given: in the data most compounds retested in dose-response had high values; details: 9.37 µM
Sequence (O96673 as listed by the source): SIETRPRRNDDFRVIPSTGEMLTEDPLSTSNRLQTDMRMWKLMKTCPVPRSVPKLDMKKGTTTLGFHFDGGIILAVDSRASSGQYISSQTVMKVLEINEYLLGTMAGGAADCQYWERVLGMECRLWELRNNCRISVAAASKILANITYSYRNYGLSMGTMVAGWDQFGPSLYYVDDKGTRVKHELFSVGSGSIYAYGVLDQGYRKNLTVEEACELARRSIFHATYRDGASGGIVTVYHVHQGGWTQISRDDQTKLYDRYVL
// Percent Effect lookup, one value per entry
A number alone suffices; assume %.

Solved entries:
compound: O=C(c1cccc(S(=O)(=O)NCCCc2ccco2)c1)N1CCOCC1
test.system: Proteasome subunit beta (Trypanosoma cruzi) (UniProt O96673)
quantitative.result: 5.86
--
compound: O=C(CSc1ccccc1Cl)NS(=O)(=O)c1ccc2c(c1)OCCO2
test.system: Proteasome subunit beta (Trypanosoma cruzi) (UniProt O96673)
quantitative.result: 9.69
--
compound: NC(=O)Cc1ccc(NC(=O)C2CCOCC2)cc1
test.system: Proteasome subunit beta (Trypanosoma cruzi) (UniProt O96673)
quantitative.result: 11.5
--
compound: c1cncc(OCC2CN(Cc3ccco3)Cc3nccn3C2)c1 (stereo unspecified)
test.system: Proteasome subunit beta (Trypanosoma cruzi) (UniProt O96673)
quantitative.result: 16
--
compound: Cc1ccc(C(=O)N2CCC3(CCC(=O)N(CC(N)=O)C3)CC2)c(O)c1
test.system: Proteasome subunit beta (Trypanosoma cruzi) (UniProt O96673)
quantitative.result: 14.2

Now consider a different compound.
Consider the compound Cc1nc(COCc2cnc3n2CCN(CC2CCC2)C3C)cs1 (stereo unspecified) and give its measured Percent Effect.
12.7

----------
molecular target: Arginase-2, mitochondrial (Homo sapiens); test: in vitro enzyme assay to detect the production of urea directly proportional to the activity of Arginase II; assay type: functional; parameters: scale not given: in the data most compounds retested in dose-response had high values; settings: 33.3 µM
readout.label: Percent Effect (%)
A number alone suffices; assume %.

Solved entries:
compound: CCn1cnnc1CNC(=O)N1CCN(Cc2ccccc2)CC1
quantitative.result: -2.32

compound: Cc1ccc(C(=O)NCC2(O)CCOCC2)cc1Br
quantitative.result: -2.38

compound: Cn1ccnc1CNC1CCCN(Cc2noc(C3CC3)n2)C1 (centres undefined)
quantitative.result: 3.81

compound: Cn1cnnc1C1CCCN(C(=O)NCCNc2ccccn2)C1 (centres undefined)
quantitative.result: 6.53

Consider the compound `COc1ccc([C@@H]2CN(C(=O)CCC(F)(F)F)C[C@H]2NC(C)=O)cc1` and give its measured Percent Effect.
2.6

Consider the compound O=C(CCOc1cccc(F)c1)N1CCCC(n2cncn2)C1 (centres undefined) and give its measured Percent Effect.
4.95

Consider the compound `CCN(CC)C(=O)CCc1c(C)nc2cc(O)nn2c1C` and give its measured Percent Effect.
-1.18

Consider the compound `CCc1ccc(CNC(=O)N2CCN(Cc3cc(C)no3)CC2)s1` and give its measured Percent Effect.
-1.08

----------
Target: Arginase-2, mitochondrial (Homo sapiens)
Sequence (whole entry): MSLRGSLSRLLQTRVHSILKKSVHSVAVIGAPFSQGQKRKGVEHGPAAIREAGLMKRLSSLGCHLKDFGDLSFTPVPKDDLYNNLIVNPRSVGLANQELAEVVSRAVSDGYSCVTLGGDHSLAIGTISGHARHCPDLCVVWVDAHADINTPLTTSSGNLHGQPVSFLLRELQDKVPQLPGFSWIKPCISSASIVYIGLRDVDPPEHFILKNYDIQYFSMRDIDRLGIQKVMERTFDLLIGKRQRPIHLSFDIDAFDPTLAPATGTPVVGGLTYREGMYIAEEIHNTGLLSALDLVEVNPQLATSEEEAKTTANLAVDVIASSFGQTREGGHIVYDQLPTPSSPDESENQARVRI
Test: in vitro enzyme assay to detect the production of urea directly proportional to the activity of Arginase II
Assay type: functional
Design: scale not given: direction of the effect not stated beside the values
Conditions: 33.3 µM
readout.label: Percent Effect (%)
A number alone suffices; assume %.

Solved entries:
molecule: CN(Cc1cccs1)C(=O)CS(=O)(=O)Cc1ccc(Cl)c(Cl)c1
Percent Effect, %: -2.74
--
molecule: O=C(CNCCn1cccn1)NCC1(c2ccccc2)CC1
Percent Effect, %: 1.47
--
molecule: Cc1cc(C)cc(N(C)S(=O)(=O)c2cc(C(=O)O)cs2)c1
Percent Effect, %: -5.21
--
molecule: O=C(CN1CCOC(Cn2cccn2)C1)NCc1cccs1 (stereo not given)
Percent Effect, %: -0.924
--
molecule: CCCc1nc(N2CCN(CC)CC2)c2c(n1)c(C)nn2CC
Percent Effect, %: -6.9
--
molecule: CCc1n[nH]c(C2CN(C(=O)c3cnc[nH]3)CCO2)n1 (stereo not given)
Percent Effect, %: 4.84
--
molecule: Cn1c(Nc2cn[nH]c2)c(C#N)c(=O)n(C)c1=O
Percent Effect, %: -1.74
--
molecule: COc1cc(CNC(=O)c2c(C)noc2C(C)C)ccn1
Percent Effect, %: 3.92
--
molecule: CC(=O)NCC(=O)N1Cc2nccn2CC(CN2CCCC2)C1 (stereo not given)
Percent Effect, %: 0.955
--
molecule: c1ccc(COC2CCN(c3cncc(-n4cccn4)n3)CC2)cc1
Percent Effect, %: 2.08

Give the reported Percent Effect for `CN(CCN1CCOCC1)C(=O)CCCc1ccccc1` (system: Arginase-2, mitochondrial (Homo sapiens)).
-3.55

Give the reported Percent Effect for `N#Cc1cccc(SCCS(N)(=O)=O)c1` (system: Arginase-2, mitochondrial (Homo sapiens)).
-9.27

----------
// Percent Effect lookup, one value per entry
biological target: Chromo domain-containing protein 1 (Saccharomyces cerevisiae (strain ATCC 204508 / S288c) (Baker's yeast)); assay: ScCHD-1 Enzyme Inhibition Assay; type: functional; set-up: scale not given: in the data most compounds retested in dose-response had high values; conditions: 30 µM
A number alone suffices; assume %.

compound: Cc1ccc(CN2CCC3(C2)C(=O)N(CC(C)C)c2ccccc23)s1 (centres undefined)
Percent Effect (%): -7.96
--
compound: NC(=O)C1CCN(Cn2nc(-c3ccccc3)oc2=O)CC1
Percent Effect (%): -5.92
--
compound: CC(C)(CO)NC(=O)C1CCC(=O)N(Cc2ccc(Cl)cc2)C1 (centres undefined)
Percent Effect (%): 0.1

Consider the compound CNC(=O)c1cccc(C2CNCCN2C)c1 (centres undefined) and give its measured Percent Effect.
-5.34

Consider the compound `CCNC(=O)Nc1ccc2c(ccn2CC(=O)N(CC)CC)c1` and give its measured Percent Effect.
-6.24

Consider the compound `O=C(CCn1ccc2cc(Br)ccc21)NCc1ccc(C(=O)O)cc1` and give its measured Percent Effect.
-1.59

Consider the compound `Cc1noc([C@H]2C[C@H]3OCC[C@H]3N(Cc3ccc4c(c3)OCO4)C2)n1` and give its measured Percent Effect.
-3.92

Consider the compound O=C(NCc1cccs1)C1CN(C(=O)c2cccs2)CC12CCOCC2 (centres undefined) and give its measured Percent Effect.
-2.49

Consider the compound CCc1nc2n(n1)CC(NCc1noc(-c3ccccc3)n1)CC2 (centres undefined) and give its measured Percent Effect.
-6.43

Consider the compound CN(c1ccncn1)C1CC2(CCN(C(=O)CCc3cccs3)C2)C1 (centres undefined) and give its measured Percent Effect.
-4.42

----------
// Percent Effect lookup, one value per entry
biological target: Protein translocase subunit SecA (Escherichia coli (strain K12)) (UniProt P10408); experiment: Assay to Identify E. coli SecA ATPase Inhibitors; format: functional; design: scale not given: direction of the effect not stated beside the values; conditions: 30 µM
Sequence (P10408 whole entry): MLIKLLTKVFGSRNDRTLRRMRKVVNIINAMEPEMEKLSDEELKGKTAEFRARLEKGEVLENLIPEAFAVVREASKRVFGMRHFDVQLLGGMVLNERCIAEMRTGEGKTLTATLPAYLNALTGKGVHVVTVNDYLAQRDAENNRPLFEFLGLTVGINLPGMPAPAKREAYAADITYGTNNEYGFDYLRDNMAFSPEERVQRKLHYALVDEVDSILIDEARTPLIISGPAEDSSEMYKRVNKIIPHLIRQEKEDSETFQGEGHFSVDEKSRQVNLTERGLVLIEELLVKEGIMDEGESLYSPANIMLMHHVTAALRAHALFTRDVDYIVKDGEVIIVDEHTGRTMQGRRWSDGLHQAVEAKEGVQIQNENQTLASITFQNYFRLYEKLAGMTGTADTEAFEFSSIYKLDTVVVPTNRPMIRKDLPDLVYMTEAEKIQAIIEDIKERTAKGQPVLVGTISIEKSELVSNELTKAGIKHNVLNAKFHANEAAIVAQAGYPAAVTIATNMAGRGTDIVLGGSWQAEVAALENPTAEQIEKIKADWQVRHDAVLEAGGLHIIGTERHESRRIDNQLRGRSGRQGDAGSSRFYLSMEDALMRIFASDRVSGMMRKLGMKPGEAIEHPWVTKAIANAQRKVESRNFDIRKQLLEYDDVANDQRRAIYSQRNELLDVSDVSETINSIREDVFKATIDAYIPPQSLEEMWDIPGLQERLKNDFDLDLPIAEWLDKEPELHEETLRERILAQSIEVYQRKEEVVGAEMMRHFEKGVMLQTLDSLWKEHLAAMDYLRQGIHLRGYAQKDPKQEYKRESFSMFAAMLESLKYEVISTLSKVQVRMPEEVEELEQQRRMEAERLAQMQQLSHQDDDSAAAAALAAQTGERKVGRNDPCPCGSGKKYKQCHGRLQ
Entries with a potency or affinity are not part of this list.
A number alone suffices; assume %.

Consider the molecule `CNC(=O)c1cnc(/C=C/c2cc(OC)c(OC)c(OC)c2)s1` and give its measured Percent Effect.
-3.62

Consider the molecule CCc1noc(C2CCCCN2C(=O)c2ccoc2C)n1 (stereo unspecified) and give its measured Percent Effect.
-3.77

Consider the molecule `COc1cccc(CNCCc2cc(F)cc3c2OCOC3)c1` and give its measured Percent Effect.
-2.14

Consider the molecule `CCOCCCn1c(NC(=O)c2scnc2C)nc2ccccc21` and give its measured Percent Effect.
-9.29

Consider the molecule NC(=O)C1CCN(C(=O)Cn2nc(-c3ccccc3)oc2=O)C1 (stereo unspecified) and give its measured Percent Effect.
-4.97

Consider the molecule `CN1CCCN(C[C@@H]2CN(C(=O)CCC3CCCC3)C[C@@H]2CO)CC1` and give its measured Percent Effect.
-5.09

----------
molecular target: AMP-activated protein kinase, AMPK (Homo sapiens) (UniProt P54646+O43741+P54619+Q9UGJ0+Q9Y478+Q13131+Q9UGI9); assay: AMP-dependent Kinase enzyme assay. An in vitro enzyme assay that detects ADP turnover that is directly proportional to AMPK activity. This uses naive AMPK that is activated during the assay with MK-8722; assay type: functional; parameters: scale not given: direction of the effect not stated beside the values; conditions: 30 µM
// Percent Effect lookup, one value per entry
A number alone suffices; assume %.

molecule: CC(C)Cc1noc(CN2CCN(C(=O)c3cccc(F)c3)CC2)n1
Percent Effect [%]: 1.5

Consider the molecule `COc1ccc(-c2nccnc2C2CCN(C(C)=O)CC2)cc1` and give its measured Percent Effect.
-4.6

----------
organism: Homo sapiens; experiment: To identify inhibition of the IFN signalling (Jak-Stat) pathway via expression of an eGFP reporter gene under the control of an IFN-stimulated response element (ISRE) containing MxA promoter.; type: functional; set-up: scale not given: direction of the effect not stated beside the values; details: 30 µM
// Percent Effect lookup, one value per entry
A number alone suffices; assume %.

Consider the compound CC(=O)Nc1nc(C(=O)N2CCCC(c3cc(C)[nH]n3)C2)cs1 (stereo not drawn) and give its measured Percent Effect.
2.32
